assayedTarget: T1, recombinant human IGSF8 extracellular domain tagged by a human Fc region (IGSF8-hFc) (human, UniProt Q969P0 28-579, biotin label in Examples 17, 18 and 28 (site not given))
T1 construct: also called IGSF8-Fc fusion protein; IGSF8-hFc-biotin; not shown: human Fc region
T1 sequence: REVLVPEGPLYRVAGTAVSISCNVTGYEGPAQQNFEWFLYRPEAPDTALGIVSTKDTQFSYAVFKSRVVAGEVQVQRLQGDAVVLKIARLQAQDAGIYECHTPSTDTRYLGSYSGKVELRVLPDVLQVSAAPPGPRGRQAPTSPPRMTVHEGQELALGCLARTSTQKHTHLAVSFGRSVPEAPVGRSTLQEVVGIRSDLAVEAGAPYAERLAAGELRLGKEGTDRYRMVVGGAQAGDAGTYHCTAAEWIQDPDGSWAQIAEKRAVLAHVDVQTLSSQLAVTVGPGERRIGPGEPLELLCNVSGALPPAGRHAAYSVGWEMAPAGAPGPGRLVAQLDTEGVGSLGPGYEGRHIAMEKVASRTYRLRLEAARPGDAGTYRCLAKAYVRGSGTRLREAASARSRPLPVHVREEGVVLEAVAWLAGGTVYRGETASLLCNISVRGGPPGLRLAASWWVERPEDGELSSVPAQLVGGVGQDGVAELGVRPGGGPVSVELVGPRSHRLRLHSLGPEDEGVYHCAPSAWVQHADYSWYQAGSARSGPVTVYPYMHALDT
test: SPR, Ab captured
measuredQuantity: koff

// below: answered binders
According to the records, this binder L2VL-D93S (antibody, V domains shown) VH: EVQLVESGGGLEQPGGSLRLSCAGSGFTFRDYAMTWVRQAPGKGLEWVSSISGSGGNTYYADSVKGRFTISRDNSKNTLYLQMNSLRAEDTAIYYCARGEYSSGWPSWFDPWGQGTLVTVSS VL: EIVLTQSPSSLSASVGDRVTISCRASRTVGTFLNWYQQRPGKPPQALILGVSILEGGVSSRFSGAGSGTEFSLTISSLQPEDIGTYYCQQSHSVPRTFGQGTKVDLR displays koff of 0.00202 s⁻¹

Short answer for L2VL-G56S (antibody, V domains shown) VH: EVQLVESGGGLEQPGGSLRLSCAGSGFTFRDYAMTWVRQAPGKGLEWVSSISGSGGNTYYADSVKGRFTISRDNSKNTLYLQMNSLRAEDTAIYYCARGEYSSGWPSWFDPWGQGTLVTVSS VL: EIVLTQSPSSLSASVGDRVTISCRASRTVGTFLNWYQQRPGKPPQALILGVSILESGVSSRFSGAGSGTEFSLTISSLQPEDIGTYYCQQSHDVPRTFGQGTKVDLR : koff was 0.00311 s⁻¹

Summary for this binder, L1-21 (antibody, V domains shown) VH: QVQLVESGGGVVQPGRSLRLSCAASGFTFSTYGMHWVRQAPGKGLEWVAVIWDDGSYKYYGDSVKGRFTISRDNSKNTLYLQMNSLRAEDTAVYYCARDGSGWGYAFDIWGQGTLVTVSS VL: DIQLTQSPSSLSASVGDRVTITCQASQDIGPWLNWYQHKPGKAPKPLIYGSPNLETGVPSRFSGSGSGTDFTFTISSLQPEDIATYYCQQYDSFPYTFGQGTKVEIK : koff is 0.00272 s⁻¹

L2-06 (antibody, V domains shown) VH: EVQLVESGGGLEQPGGSLRLSCAASGFTFRDYAMTWVRQAPGKGLEWVSSISGSGGSTYYADSVKGRFTISRDNSKNTLYLQMNSLRAEDTAIYYCARGEYSSGWPSWFDPWGQGTLVTVSS VL: DIQMTQSPSSLSASVGDRVTITCRASRTVGTFLNWYQQKPGKAPKALILGVSILEGGVPSRFSGSGSGTDFTLTISSLQLEDFATYYCQQSHDVPRTFGQGTKVEIK has a reported koff of 0.000249 s⁻¹

koff reading for L1-23 (antibody, V domains shown) VH: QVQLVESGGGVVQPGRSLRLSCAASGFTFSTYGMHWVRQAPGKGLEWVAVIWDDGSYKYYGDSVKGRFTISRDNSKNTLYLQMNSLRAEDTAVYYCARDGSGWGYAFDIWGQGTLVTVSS VL: DIQLTQSPSSLSASVGDRVTITCQASQDIGPWLNWYQHKPGKAPKPLVFGSPNLETGVPSRFSASGSGTDFTLTISSLQPEDFATYYCQQYDSFPYTFGQGTKVEIK : 1.19e-06 s⁻¹

Query L1-31 (antibody, V domains shown) VH: QVQLVESGGGVVQPGRSLRLSCAASGFTFSTYGMHWVRQAPGKGLEWVAVIWDGGKYKYYGDSVKGRFTISRDNSKNTLYLQMNSLRAEDTAVYYCARDGSGWGYAFDIWGQGTLVTVSS VL: DIQLTQSPSSLSASVGDRVTITCQASQDIGPWLNWYQHKPGKAPKPLVFRSPNLETGVPSRFSASGSGTDFTLTISSLQPEDFATYYCQQYDSFPYTFGQGTKVEIK yields koff of 7.8e-07 s⁻¹

# koff (binder: L1-20 (antibody, IgG1, V domains shown, also called L1-20-IgG1) VH: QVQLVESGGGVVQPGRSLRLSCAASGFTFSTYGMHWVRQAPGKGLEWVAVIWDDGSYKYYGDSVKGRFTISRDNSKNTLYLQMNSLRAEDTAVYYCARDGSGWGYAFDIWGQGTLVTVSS VL: DIQLTQSPSSLSASVGDRVTITCQASQDIEWWLNWYQQKPGKAPKLLIYGSPNLETGVPSRFSGSGSGTDFTFTISSLQPEDIATYYCQQYDSFPYTFGQGTKVEIK ) is 7.02e-06 s⁻¹

Reported koff of L2-07 (antibody, V domains shown) VH: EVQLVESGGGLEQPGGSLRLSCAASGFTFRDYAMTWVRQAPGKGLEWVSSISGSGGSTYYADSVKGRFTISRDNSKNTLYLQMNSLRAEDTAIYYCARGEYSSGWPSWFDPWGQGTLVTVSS VL: DIQMTQSPSSLSASVGDRVTITCRASRTVGTFLNWYQQKPGKAPKALILGVSILEGGVPSRFSGSGSGTDFTLTISSLQPEDIGTYYCQQSHDVPRTFGQGTKVEIK : 0.000129 s⁻¹

koff in this record for L2VH-T35S (antibody, V domains shown) VH: EVQLVESGGGLEQPGGSLRLSCAGSGFTFRDYAMSWVRQAPGKGLEWVSSISGSGGNTYYADSVKGRFTISRDNSKNTLYLQMNSLRAEDTAIYYCARGEYSSGWPSWFDPWGQGTLVTVSS VL: EIVLTQSPSSLSASVGDRVTISCRASRTVGTFLNWYQQRPGKPPQALILGVSILEGGVSSRFSGAGSGTEFSLTISSLQPEDIGTYYCQQSHDVPRTFGQGTKVDLR : 0.00139 s⁻¹

Field: next binder
Sample L1-30 (antibody, V domains shown) VH: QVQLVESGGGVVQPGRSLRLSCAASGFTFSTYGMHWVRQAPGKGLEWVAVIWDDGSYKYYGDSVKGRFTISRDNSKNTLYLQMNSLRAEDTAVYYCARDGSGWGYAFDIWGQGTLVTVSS VL: DIQLTQSPSSLSASVGDRVTITCQASQDIGPWLNWYQHKPGKAPKPLVFGADNLETGVPSRFSASGSGTDFTLTISSLQPEDFATYYCQQYDSFPYTFGQGTKVEIK ; koff observed: 3.03e-06 s⁻¹
